All figures here come from ChEMBL document CHEMBL3045119.

Recorded measurements of inhibition at 50 µg/mL, one per entry
Test system: Mycosphaerella arachidis
Experimental Details: Fungicidal activity against Mycosphaerella arachidis assessed as inhibition of mycelium growth at 50 ug/mL by mycelium growth rate method
Type: functional
// note: answer is a bare numeric in %

Worked cases, inhibition at 50 µg/mL given:
[[record]]
smiles_entry = "Nc1ccc2nc3cccc(C(=O)O)c3nc2c1"
target_under_test = "Mycosphaerella arachidis"
endpoint_name = "inhibition at 50 µg/mL"
test_result = 11.5

[[record]]
smiles_entry = "CCCCOC(=O)c1cccc2nc3c(NC(=O)CCCCl)c([N+](=O)[O-])ccc3nc12"
target_under_test = "Mycosphaerella arachidis"
endpoint_name = "inhibition at 50 µg/mL"
test_result = 11.1

[[record]]
smiles_entry = "COC(=O)c1cccc2nc3c(S(=O)(=O)c4ccccc4[N+](=O)[O-])cccc3nc12"
target_under_test = "Mycosphaerella arachidis"
endpoint_name = "inhibition at 50 µg/mL"
test_result = 0


Turning now to a further compound:
INPUT: Return inhibition at 50 µg/mL measured with Mycosphaerella arachidis given this compound: `COC(=O)c1cccc2nc3cc(C(=O)c4ccc(Cl)cc4Cl)ccc3nc12`
OUTPUT: 0
